Values were extracted from the Human Domainome abundance scans (Beltran et al. 2025).

B1: Ankyrin repeat and SAM domain-containing protein 6, residues 774 to 836; numbered along this chain, Q68DC2 (parent)
chain: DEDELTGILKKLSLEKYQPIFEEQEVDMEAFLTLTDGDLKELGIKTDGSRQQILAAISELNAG

variants of: B1; experiment: abundance fitness (aPCA) (normalised: wild type 0, dead -1); higher = more abundant; growth selection in yeast, the domain comes from the species named; conditions: Homo sapiens
Readout name: abundance fitness

Mutant designation | Readout name | Test result
Q51N | abundance fitness | -0.044
M28P | abundance fitness | -0.168
L32V | abundance fitness | -0.103
G63A | abundance fitness | -0.007
K40L | abundance fitness | -0.036
D38Q | abundance fitness | -0.165
L14W | abundance fitness | -0.946
G48A | abundance fitness | -0.047
